test: Inhibition of Leishmania donovani chagasi beta-carbonic anhydrase incubated for 15 mins prior to testing by stopped-flow CO2 hydration assay
Each record is given Fulfilled if its reported Ki is strictly below 1000 nM. Records at or above 1000 nM are given Not fulfilled.

{"Smiles representation": "NS(=O)(=O)c1ccc(CC/N=C/c2cccc(Br)c2O)cc1", "Discrete label": "Not fulfilled"}
{"Smiles representation": "NS(=O)(=O)c1ccc(CC/N=C/c2c(F)c(F)cc(F)c2F)cc1", "Discrete label": "Fulfilled"}
{"Smiles representation": "COc1cc([N+](=O)[O-])ccc1/C=N/CCc1ccc(S(N)(=O)=O)cc1", "Discrete label": "Not fulfilled"}
{"Smiles representation": "NS(=O)(=O)c1ccc(/N=C/c2csc3ccccc23)cc1", "Discrete label": "Not fulfilled"}
{"Smiles representation": "NS(=O)(=O)c1ccc(CC/N=C/c2ccc(S(=O)(=O)O)o2)cc1", "Discrete label": "Not fulfilled"}
{"Smiles representation": "NS(=O)(=O)c1ccc(/N=C/c2ccc(-c3ccccn3)cc2)cc1", "Discrete label": "Not fulfilled"}

---

tested on: Brucella suis; assay: Potency index, ratio of dichlorphenamide Ki to compound Ki for Brucella suis beta-carbonic anhydrase 2
Outcome measure: Ratio Ki

{"Smiles representation": "NS(=O)(=O)c1ccc(CC/N=C/c2cccc(Br)c2O)cc1", "Study target": "Brucella suis", "Outcome measure": "Ratio Ki", "Experimental value": 10}
{"Smiles representation": "NS(=O)(=O)c1ccc(CC/N=C/c2ccc(Br)cc2O)cc1", "Study target": "Brucella suis", "Outcome measure": "Ratio Ki", "Experimental value": 10}
{"Smiles representation": "NS(=O)(=O)c1ccc(CC/N=C/c2ccc(-c3ccccc3)cc2)cc1", "Study target": "Brucella suis", "Outcome measure": "Ratio Ki", "Experimental value": 10}
{"Smiles representation": "NS(=O)(=O)c1ccc(CC/N=C/c2ccc(-c3ccccn3)cc2)cc1", "Study target": "Brucella suis", "Outcome measure": "Ratio Ki", "Experimental value": 10}
{"Smiles representation": "COc1ccc(/C=N/CCc2ccc(S(N)(=O)=O)cc2)c(O)c1", "Study target": "Brucella suis", "Outcome measure": "Ratio Ki", "Experimental value": 10}
{"Smiles representation": "NS(=O)(=O)c1ccc(CC/N=C/c2c(F)c(F)cc(F)c2F)cc1", "Study target": "Brucella suis", "Outcome measure": "Ratio Ki", "Experimental value": 100}
{"Smiles representation": "CSc1ccc(/C=N/CCc2ccc(S(N)(=O)=O)cc2)cc1", "Study target": "Brucella suis", "Outcome measure": "Ratio Ki", "Experimental value": 10}
{"Smiles representation": "NS(=O)(=O)c1ccc(/N=C/c2ccc(Br)cc2O)cc1", "Study target": "Brucella suis", "Outcome measure": "Ratio Ki", "Experimental value": 10}
{"Smiles representation": "NS(=O)(=O)c1ccc(CC/N=C/c2ccc(S(=O)(=O)O)o2)cc1", "Study target": "Brucella suis", "Outcome measure": "Ratio Ki", "Experimental value": 10}
{"Smiles representation": "N#Cc1ccc(/C=N/CCc2ccc(S(N)(=O)=O)cc2)cc1", "Study target": "Brucella suis", "Outcome measure": "Ratio Ki", "Experimental value": 100}
{"Smiles representation": "NS(=O)(=O)c1ccc(/N=C/c2ccccc2)c(F)c1", "Study target": "Brucella suis", "Outcome measure": "Ratio Ki", "Experimental value": 100}
{"Smiles representation": "NS(=O)(=O)c1ccc(CC/N=C/c2c[nH]c3ccc(Br)cc23)cc1", "Study target": "Brucella suis", "Outcome measure": "Ratio Ki", "Experimental value": 100}

---

assay: Selectivity ratio of Ki for human alpha-carbonic anhydrase 1 to Ki for Leishmania donovani chagasi beta-carbonic anhydrase
Ratio Ki by entry:

{"Smiles representation": "NS(=O)(=O)c1ccc(/N=C/c2ccccc2)c(F)c1", "Readout relation": "<", "Ratio Ki": 0.2}
{"Smiles representation": "NS(=O)(=O)c1ccc(/N=C/c2csc3ccccc23)cc1", "Readout relation": "=", "Ratio Ki": 2.1}
{"Smiles representation": "NS(=O)(=O)c1ccc(CC/N=C/c2ccc(S(=O)(=O)O)o2)cc1", "Readout relation": "=", "Ratio Ki": 2}
{"Smiles representation": "NS(=O)(=O)c1ccc(CC/N=C/c2c[nH]c3ccc(Br)cc23)cc1", "Readout relation": "=", "Ratio Ki": 0.9}
{"Smiles representation": "NS(=O)(=O)c1ccc(CC/N=C/c2ccc(Br)cc2O)cc1", "Readout relation": "=", "Ratio Ki": 2.1}
{"Smiles representation": "COc1ccc(/C=N/CCc2ccc(S(N)(=O)=O)cc2)c(O)c1", "Readout relation": "=", "Ratio Ki": 23.2}

---

assay: Selectivity ratio of Ki for human alpha-carbonic anhydrase 2 to Ki for Brucella suis beta-carbonic anhydrase 1
Ratio Ki by entry:

{"Smiles representation": "NS(=O)(=O)c1ccc(CC/N=C/c2ccc(-c3ccccn3)cc2)cc1", "Readout relation": "=", "Ratio Ki": 0.8}
{"Smiles representation": "NS(=O)(=O)c1ccc(CC/N=C/c2c[nH]c3ccc(Br)cc23)cc1", "Readout relation": "=", "Ratio Ki": 23.9}
{"Smiles representation": "NS(=O)(=O)c1ccc(/N=C/c2csc3ccccc23)cc1", "Readout relation": "=", "Ratio Ki": 0.6}
{"Smiles representation": "CSc1ccc(/C=N/CCc2ccc(S(N)(=O)=O)cc2)cc1", "Readout relation": "=", "Ratio Ki": 8.9}
{"Smiles representation": "N#Cc1ccc(/C=N/CCc2ccc(S(N)(=O)=O)cc2)cc1", "Readout relation": "=", "Ratio Ki": 8.4}
{"Smiles representation": "NS(=O)(=O)c1ccc(CC/N=C/c2ccc(S(=O)(=O)O)o2)cc1", "Readout relation": "=", "Ratio Ki": 0.7}
{"Smiles representation": "NS(=O)(=O)c1ccc(CC/N=C/c2ccc(-c3ccccc3)cc2)cc1", "Readout relation": "=", "Ratio Ki": 11.7}
{"Smiles representation": "NS(=O)(=O)c1ccc(CC/N=C/c2cccc(Br)c2O)cc1", "Readout relation": ">", "Ratio Ki": 222}
{"Smiles representation": "NS(=O)(=O)c1ccc(/N=C/c2ccccc2)c(F)c1", "Readout relation": "=", "Ratio Ki": 61.5}
{"Smiles representation": "NS(=O)(=O)c1ccc(CC/N=C/c2ccc(Br)cc2O)cc1", "Readout relation": "=", "Ratio Ki": 0.9}
{"Smiles representation": "COc1cc([N+](=O)[O-])ccc1/C=N/CCc1ccc(S(N)(=O)=O)cc1", "Readout relation": "=", "Ratio Ki": 0.5}

---

Ratio Ki by entry:
experiment: Selectivity ratio of Ki for human alpha-carbonic anhydrase 1 to Ki for Cryptococcus neoformans beta-carbonic anhydrase
Outcome measure: Ratio Ki

{"Smiles representation": "NS(=O)(=O)c1ccc(/N=C/c2ccc(Br)cc2O)cc1", "Experimental value": 256}
{"Smiles representation": "NS(=O)(=O)c1ccc(CC/N=C/c2c(F)c(F)cc(F)c2F)cc1", "Experimental value": 1160}
{"Smiles representation": "N#Cc1ccc(/C=N/CCc2ccc(S(N)(=O)=O)cc2)cc1", "Experimental value": 106}
{"Smiles representation": "NS(=O)(=O)c1ccc(/N=C/c2ccccc2)c(F)c1", "Experimental value": 891}
{"Smiles representation": "NS(=O)(=O)c1ccc(/N=C/c2ccc(-c3ccccc3)cc2)c(F)c1", "Experimental value": 159}
{"Smiles representation": "NS(=O)(=O)c1ccc(/N=C/c2ccco2)c(F)c1", "Experimental value": 21.3}
{"Smiles representation": "NS(=O)(=O)c1ccc(CC/N=C/c2ccc(S(=O)(=O)O)o2)cc1", "Experimental value": 236}
{"Smiles representation": "COc1ccc(/C=N/CCc2ccc(S(N)(=O)=O)cc2)c(O)c1", "Experimental value": 258}
{"Smiles representation": "NS(=O)(=O)c1ccc(CC/N=C/c2c[nH]c3ccc(Br)cc23)cc1", "Experimental value": 1840}
{"Smiles representation": "COc1cc([N+](=O)[O-])ccc1/C=N/CCc1ccc(S(N)(=O)=O)cc1", "Experimental value": 10.1}
{"Smiles representation": "NS(=O)(=O)c1ccc(CC/N=C/c2cccc(Br)c2O)cc1", "Experimental value": 340}
{"Smiles representation": "NS(=O)(=O)c1ccc(CC/N=C/c2ccc(-c3ccccn3)cc2)cc1", "Experimental value": 69.9}
{"Smiles representation": "NS(=O)(=O)c1ccc(/N=C/c2ccc(-c3ccccn3)cc2)cc1", "Experimental value": 202}
{"Smiles representation": "NS(=O)(=O)c1ccc(CC/N=C/c2ccc(Br)cc2O)cc1", "Experimental value": 190}
{"Smiles representation": "CSc1ccc(/C=N/CCc2ccc(S(N)(=O)=O)cc2)cc1", "Experimental value": 135}
{"Smiles representation": "NS(=O)(=O)c1ccc(CC/N=C/c2ccc(-c3ccccc3)cc2)cc1", "Experimental value": 4860}
{"Smiles representation": "NS(=O)(=O)c1ccc(/N=C/c2csc3ccccc23)cc1", "Experimental value": 183}
